measurement.notes: qHTS assay to identify small molecule antagonists of the estrogen related receptor (ERR) signaling pathway from Tox21 library - cell viability counter screen (AID 1224834); also: nearly all actives have a fitted effect of over 30% in size
experimental.context: ERR reporter cells viability, CellTiter-Fluor, 17.5 h; series mostly up to 92.4 µM
Records with an inconclusive call do not appear. Activity calls are given as the source filed them. Calls follow the shape of the dose curve; as a rule, active = well fitted cell-killing curve with a large enough effect in the repeat runs; inconclusive = weak or mixed curves; inactive = flat fitted curve, though single readings scatter.
Hello, when you answer, please use one of the following outcomes: active, inactive

Field: example entries. Status: answers known.
molecule	assigned.category
Nc1ccc(N)c2ccccc12	active
CCC(C)(C)C1CCCCC1OC(C)=O (stereo unspecified)	inactive
NNc1nc(-c2ccc(N)cc2)cs1	active
Clc1ccc2n[nH]nc2c1	inactive
CCOC(=O)/C=C(C)/C=C/C=C(C)/C=C/c1c(C)cc(OC)c(C)c1C	inactive

What outcome does the record of this test show for NC(=O)N1C(=O)C(C(=O)c2cc(Cl)cs2)c2cc(F)c(Cl)cc21 (stereo unspecified) ?
active

What outcome does the record of this test show for Clc1ccc2cc3ccccc3cc2c1 ?
inactive

What outcome does the record of this test show for CCCCCCCCCOC(=O)c1ccc(O)cc1 ?
active

What outcome does the record of this test show for CC[C@H]1O[C@]2(CC[C@@H]1C)C[C@@H]1C[C@@H](C/C=C(\C)C[C@@H](C)/C=C/C=C3\CO[C@@H]4[C@H](O)C(C)=C[C@@H](C(=O)O1)[C@]34O)O2 ?
active

What outcome does the record of this test show for CCN(C(=O)c1cc(C)cc(OC[C@H](C)Nc2ccncc2)c1)C(C)C ?
inactive

What outcome does the record of this test show for COc1cc(-c2nc(NC(=O)c3cc4cc(C)cc(C)c4n3CC(=O)O)sc2CCC2CCCCC2)c(OC)cc1Cl ?
active

====

measurement.notes: qHTS RealTime-Glo MT Cell Viability Assay in HEK293 cells - 8 hour (AID 1224887); also: nearly all actives have a fitted effect of over 50% in size
experimental.context: RealTime-Glo luminescence; series mostly up to 76.8 µM
Inconclusive results are not listed. Activity calls are given as the source filed them. The call rests on the fitted dose curve; in most records, active means well fitted cell-killing curve with a large enough effect in the repeat runs; inconclusive means weak or mixed curves, or effect the other way; inactive means flat fitted curve, though single readings scatter.
Hello, when you answer, please use one of the following outcomes: t = active, f = inactive

>>> df
                     molecule  assigned_category
0  CO[Si](CCCNc1ccccc1)(OC)OC                  f

What outcome does the record of this test show for C[n+]1ccn(Cc2ccccc2)c1 ?
f

What outcome does the record of this test show for COc1cc(-c2ccc(N=C=O)c(OC)c2)ccc1N=C=O ?
f

What outcome does the record of this test show for O=c1[nH]cnc2nc[nH]c12 ?
f

What outcome does the record of this test show for CCCCCCCC/C=C/CCCCCCCC1=NCCN1CCO ?
t

What outcome does the record of this test show for CC(C)(C)NC(=O)[C@@H]1C[C@@H]2CCCC[C@@H]2CN1C[C@@H](O)[C@H](Cc1ccccc1)NC(=O)[C@H](CC(N)=O)NC(=O)c1ccc2ccccc2n1 ?
t

====

measurement.notes: qHTS assay for identifying genotoxic compounds that show differential cytotoxicity against isogenic chicken DT40 cell lines with known DNA damage response pathways - Rev3 mutant cell line (AID 743014); also: nearly all actives have a fitted effect of over 55% in size
experimental.context: chicken DT40 Rev3-/- viability, CellTiter-Glo, 40 h; series mostly up to 68.4 µM
Results filed as inconclusive are left out. The source made the active and inactive calls. The call rests on the fitted dose curve; in most records, active means well fitted cell-killing curve with a large enough effect in the repeat runs; inconclusive means weak or mixed curves, or effect the other way; inactive means no such curve, though single readings can be large or run the other way.
Hello, when you answer, please use one of the following outcomes: label 1 = active, label 0 = inactive

Field: example entries. Status: answers known.
In [3]: df
Out[3]:
                                   molecule  assigned_category
0  [Cl][Bi]([Cl])([c]1ccccc1)([c]1ccccc1)[c]1ccccc1            label 1
1  CSc1ccc(/C=C2/C(C)=C(CC(=O)O)c3cc(F)ccc32)cc1            label 0
2                  Clc1ccc2nsnc2c1NC1=NCCN1            label 0
3  C=CC(=O)OCCn1c(=O)n(CCOC(=O)C=C)c(=O)n(CCOC(=O)C=C)c1=O            label 1
4  CC(C)(C)NC(=O)[C@@H]1C[C@@H]2CCCC[C@@H]2CN1C[C@@H](O)[C@H](Cc1ccccc1)NC(=O)[C@H](CC(N)=O)NC(=O)c1ccc2ccccc2n1            label 1
5                 N=C1N=C(N)c2cc3ccccc3cc21            label 1
6  CCN(C(=O)c1cc(C)cc(OC[C@H](C)Nc2ccncc2)c1)C(C)C            label 1
7       COCCCC/C(=N\OCCN)c1ccc(C(F)(F)F)cc1            label 1

--- query ---
What outcome does the record of this test show for O=C(O)c1c(Cl)cccc1Cl ?
label 0
